Provenance of the data: PubChem BioAssay (NCI)

# Tested on: MDA-MB-231 breast
# Method: NCI-60 one-dose screen, 48 h
# Run conditions: 10 µM unless noted
Compounds without any hit were thinned out: in the full panel of roughly 83,000, 20% have a hit. The source made the active and inactive calls. Rule for the calls: active = growth percent below 10; inactive = the rest.
Tick one outcome: active, inactive

Check out these entries, answers already filled in.
Oc1ccc(CSc2nnc(-c3cnccn3)o2)c2cccnc12    inactive
C=CCn1c(SCC(=O)c2ccc(OC)cc2)nnc1-c1ccc(OC)cc1    inactive
O=C1CC2(CCOCC2)Oc2ncccc21    active
NNC(=O)c1sc2nc(-c3cnccn3)cc(-c3cccs3)c2c1N    inactive
CS(=O)c1nccc(-c2c(-c3ccc(F)c(OCCc4ccccc4)c3)nc3sccn23)n1 (stereo not given)    inactive
C=CCn1c(SCC(=O)Nc2cccc(C(=O)/C=C/c3ccc(Cl)cc3)c2)nc2ccccc2c1=O    inactive

Request: Which outcome did this test record for the molecule COc1ccc(-c2ccnc3c(C#N)c(Nc4ccccc4)nn23)cc1OC ?
Response: inactive

Request: Which outcome did this test record for the molecule Nc1nc(-c2cccc([N+](=O)[O-])c2)c(N=Nc2cccc(Cl)c2)s1 ?
Response: inactive

Request: Which outcome did this test record for the molecule C=CCn1c(SCC(=O)Nc2cccc(C(=O)/C=C/c3ccc(Br)cc3)c2)nc2ccccc2c1=O ?
Response: inactive

Request: Which outcome did this test record for the molecule C=CCn1c(SCC(=O)Nc2cccc(C(=O)/C=C/c3ccc(C)cc3)c2)nc2ccccc2c1=O ?
Response: inactive

====

# Test system: CCRF-CEM leukemia
# Method: NCI-60 one-dose screen, 48 h
# Run conditions: 10 µM unless noted
About 83,000 compounds went through this panel and 20% of them were active in at least one assay; those are over-represented in the sample as a whole. Calls of active or inactive are those of the source. How the source made its calls: active means growth percent below 10; inactive means the rest.
Tick one outcome: true (1) = active, false (0) = inactive

COc1ccc(C2C(C#N)=C(N)Oc3c2sc2ccc(C)cc32)cc1 (centres undefined)    false (0)
N#C/C(=C\c1ccc(N2CCCCC2)cc1)C(=O)Nc1sc2c(c1C#N)CCC2    true (1)
COc1cc(CNC(=O)Cc2ccccc2[N+](=O)[O-])ccc1OCC(=O)NO    false (0)

Request: Which outcome did this test record for the compound O=S(=O)(Nc1cc(Cl)c(F)c(Cl)c1)c1ccc(-c2cnc(C3CC3)o2)cc1 ?
Response: false (0)

Request: Which outcome did this test record for the compound Nc1nc(N)c2c(n1)NC(c1ccc(Cl)cc1)CC(c1ccc(Nc3nc(NCCO)nc(Nc4ccc(Cl)cc4)n3)cc1)=N2 (centres undefined) ?
Response: true (1)

Request: Which outcome did this test record for the compound COC[C@]12CC[C@@H](C)[C@H](C)[C@H]1C1=CC[C@@H]3[C@@]4(C)CCCNC(C)(C)[C@@H]4CC[C@@]3(C)[C@]1(C)CC2 ?
Response: false (0)

Request: Which outcome did this test record for the compound NS(=O)(=O)c1ccc(-n2cc(CC=O)nn2)cc1 ?
Response: false (0)

Request: Which outcome did this test record for the compound NC(=O)C(=Cc1ccc(Cl)cc1)C(N)=O ?
Response: false (0)

Request: Which outcome did this test record for the compound Cn1cc(-c2nn3c(=O)cc(-c4ccccc4)nc3s2)c2cc(F)ccc21 ?
Response: false (0)

====

# System: BT-549 breast
# Method: NCI-60 one-dose screen, 48 h (100 = growth as untreated, 0 = no growth, -100 = all killed)
# Run conditions: 10 µM unless noted
The panel holds about 83,000 compounds, 20% with a hit somewhere; the sample as a whole holds those more often. The source made the active and inactive calls. How the source made its calls: active means growth percent below 10; inactive means the rest.
growth values by entry

Worked cases, growth given:
O=C1[C@H]2Cc3c([nH]c4ccccc34)[C@H](c3ccc(Cl)cc3)N2C(=O)CN1C1CCN(Cc2c(Cl)cccc2Cl)CC1    91.6% (inactive)
COc1ccc(NC(=O)[C@H](C)N)cc1C(=O)Nc1cccc(-c2cc(=O)c3c(OC)c(OC)c(OC)cc3o2)c1    78.4% (inactive)

Now consider the entry below.
Request: Can you look up growth on BT-549 breast for Cc1ccc(NC(=O)N[C@@H](Cc2cc(F)cc(F)c2)C(=O)NC2C(=O)N3CCC[C@H]3C(=O)N3CCCC[C@H]3C(=O)N[C@@H](C)C(=O)N3C[C@H](C)C[C@H]3C(=O)O[C@H]2C)c(F)c1 (stereo partly drawn) ?
Response: 28.7% (inactive)
